Values compiled from ChEMBL document CHEMBL4000244.

- ASSAY REMARKS: Displacement of thiazole orange from d(G4C4)2 DNA by Scatchard plot analysis
Task for the reader: assign each of the following compounds its reported Ka.
A complete answer gives the number followed by the unit.

{"columns": ["COMPOUND", "READING"],
 "data": [
  ["NCC1O[C@H](O[C@H]2[C@@H](O)[C@H](O[C@@H]3[C@@H](O)[C@H](N)C[C@H](N)[C@H]3O[C@H]3O[C@H](CN)[C@@H](O)[C@H](O)[C@H]3N)O[C@@H]2CNC(=S)NCCCOCCCCOCCCNC(=S)NCc2ccc3c(c2)C(=O)c2ccccc2C3=O)[C@H](N)[C@@H](O)[C@@H]1O (stereo not given in full)", "11.8 ×10⁶ /M"]
]}

Batch request: Ka for each of the following compounds.
1. NCC1O[C@H](O[C@H]2[C@@H](O)[C@H](O[C@@H]3[C@@H](O)[C@H](N)C[C@H](N)[C@H]3O[C@H]3O[C@H](CN)[C@@H](O)[C@H](O)[C@H]3N)O[C@@H]2CSCCNC(=S)NCCCOCCCCOCCCNC(=S)NCc2ccc3c(c2)C(=O)c2ccccc2C3=O)[C@H](N)[C@@H](O)[C@@H]1O (stereo not given in full)
2. NCC1O[C@H](O[C@H]2[C@@H](O)[C@H](O[C@@H]3[C@@H](O)[C@H](N)C[C@H](N)[C@H]3O[C@H]3O[C@H](CN)[C@@H](O)[C@H](O)[C@H]3N)O[C@@H]2CSCCNC(=S)NCCNC(=S)NCc2ccc3c(c2)C(=O)c2ccccc2C3=O)[C@H](N)[C@@H](O)[C@@H]1O (stereo not given in full)

Response:
1: 18.4 ×10⁶ /M; 2: 3.09 ×10⁶ /M

Batch request: Ka for each of the following compounds.
1. NCC1O[C@H](O[C@H]2[C@@H](O)[C@H](O[C@@H]3[C@@H](O)[C@H](N)C[C@H](N)[C@H]3O[C@H]3O[C@H](CN)[C@@H](O)[C@H](O)[C@H]3N)O[C@@H]2CNC(=S)NCCNC(=S)NCc2ccc3c(c2)C(=O)c2ccccc2C3=O)[C@H](N)[C@@H](O)[C@@H]1O (stereo not given in full)
2. NCC1O[C@H](O[C@H]2[C@@H](O)[C@H](O[C@@H]3[C@@H](O)[C@H](N)C[C@H](N)[C@H]3O[C@H]3O[C@H](CN)[C@@H](O)[C@H](O)[C@H]3N)O[C@@H]2CSCCNC(=S)NCc2ccc3c(c2)C(=O)c2ccccc2C3=O)[C@H](N)[C@@H](O)[C@@H]1O (stereo not given in full)

Response:
1: 3.85 ×10⁶ /M; 2: 3.62 ×10⁶ /M
